Data provenance: PubChem BioAssay AID493030

Target: Platelet-activating factor acetylhydrolase 2, cytoplasmic (Homo sapiens) (UniProt Q99487)
Test: inhibition of cytoplasmic PAF acetylhydrolase 2 – biochemical, fluorescence polarization, human, confirmation (AID 493030);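 further: inhibitor blocks binding of rhodamine activity probe so polarization falls; 0% = enzyme with DMSO and 100% = wells lacking PAFAH2 protein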
Conditions: recombinant PAFAH2, FP-rhodamine activity probe, at 3.39 µM
The campaign covered roughly 2,300 compounds. About 1,500 (65%) were called active.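 How the source made its calls: active means mean inhibition over three repeats above a set limit taken from the earlier primary screen (cut at about 30% in these data); inactive means the rest.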 The set was probably picked from earlier hits. These entries were drawn from the full list.
Classes used: 1 for active, 0 for inactive

1) COc1ccc(/C=C/C(=O)OCC(=O)NCc2cccs2)cc1OC	1
2) COc1ccc(C(=O)OCC(=O)Nc2cccc(C(C)=O)c2)cc1OC	1
3) COc1cc(/C=C/C(=O)OCC(=O)NCCCc2ccccc2)ccc1O	1
4) O=C(c1cccnc1)N(c1cc2sc(=O)oc2c2ccccc12)S(=O)(=O)c1ccccc1	0
5) O=C(O)c1ccccc1N=N/C(=N/Nc1cc(S(=O)(=O)O)ccc1O)c1ccccc1	0
6) COc1cc(C(=O)OCC(=O)NC23CC4CC(CC(C4)C2)C3)cc(OC)c1OC	1
7) O=C(COC(=O)/C=C/c1cccc(Cl)c1)NCc1cccs1	1
8) Cc1ccc(C(=O)OCC(=O)Nc2ccc(Cl)cn2)cc1S(=O)(=O)N1CCOCC1	1
9) COc1ccc(C(=O)OCC(=O)NCCCc2ccccc2)cc1OC	1
10) COc1cccc(C(=O)n2ccc(-c3cccs3)n2)c1	0
11) Cc1ccc(/C=C/C(=O)OCC(=O)NCc2ccc(Cl)cc2)o1	1
12) O=C(COC(=O)c1ccccc1C(=O)c1ccccc1)c1ccco1	1
13) O=[N+]([O-])c1ccc(C=Nc2ccc(Cl)cc2Cl)s1	0
14) COc1ccc(NC(=O)CC(NC(C)c2ccccc2)C(=O)O)cc1 (stereo not given)	0
15) O=C(COC(=O)/C=C/c1ccc(OC(F)F)cc1)NC1CCCCC1	1
16) O=C(OCc1nc2ccccc2[nH]1)C1CCCCC1	1
17) COc1ccc(OC)c(/C=C/C(=O)OCC(=O)Nc2ccc3c(c2)OCCO3)c1	1
18) COc1cc(/C=C/C(=O)OCC(=O)Nc2cccc(Oc3ccccc3)c2)ccc1O	1
19) O=C(COC(=O)c1n[nH]c2ccccc12)NCc1ccccc1	0
20) O=C(COC(=O)c1n[nH]c2ccccc12)Nc1ccccc1Br	1
21) CCc1ccc(C(=O)OCC(=O)NCC(F)(F)F)cc1	1
22) O=C(COC(=O)C12CC3CC(CC(O)(C3)C1)C2)NC12CC3CC(CC(C3)C1)C2	1
23) C=CCOc1ccc(/C=C/C(=O)OCC(=O)NC(C)c2ccc(F)cc2)cc1 (stereo not given)	1
24) Cc1ccc(Cl)cc1NC(=O)COC(=O)C1CCCCC1	0
25) CC(C)(C)c1csc(NC2=NS(=O)(=O)c3ccccc32)n1	0
26) CCCCN1Cc2c(nc3cc(-c4ccccc4)[nH]n3c2=O)C1=O	0
27) O=C(COC(=O)c1cccnc1Cl)NC12CC3CC(CC(C3)C1)C2	1
28) Cc1cccc(/C=N/NC(=O)CNc2cccc3ccccc23)n1	1
29) C=CCOc1ccc(/C=C/C(=O)OCC(=O)NC2CCCCCC2)cc1	1
30) O=C(COC(=O)c1ccc2c(c1)OCCO2)NCc1ccccc1	1
31) COCCNC(=O)/C(C#N)=C/c1cccc(OCc2ccccc2)c1	0
32) COc1cccc(NC(=O)COC(=O)/C=C/c2ccco2)c1	1
33) CCc1c(SCCC(=O)O)nc2ccccc2c1C	0
34) CCC(C)(C)c1ccc(Oc2ccc(NC(=O)COC(=O)C3=COCCO3)cc2)cc1	1
35) O=C(Cc1ccc(S(=O)(=O)N2CCOCC2)s1)NCCOc1ccccc1F	1
36) Cc1cc(C(=O)COC(=O)C2CC2)c(C)n1-c1ccc(F)cc1	1
37) Cc1ccc(NC(=O)COC(=O)C2C3CC4OC(=O)C2C4C3)cc1Cl (stereo not given)	1
38) O=C(COC(=O)c1cccs1)Nc1ccccc1Cl	1
39) CC(NC(=O)COC(=O)c1ccc2c(c1)OCO2)c1ccccc1 (stereo not given)	1
40) COc1ccc(/C=C/C(=O)OCC(=O)NC2CCCCCC2)cc1OC	1
41) O=C(COC(=O)c1ccc2ncsc2c1)Nc1ccc(Cl)cc1	1
42) CN(C)S(=O)(=O)c1cccc(NC(=O)COC(=O)/C=C/c2cccs2)c1	1
43) Cc1oc2cc(Br)c(O)c(Br)c2c1C(=O)c1ccccc1	1
44) O=c1[nH]n(-c2ccc([N+](=O)[O-])cc2)c(=O)c2ccccc12	1
45) O=c1oc(/C=C/c2ccccc2)nc2ccccc12	1

* * *

Molecular target: Platelet-activating factor acetylhydrolase 2, cytoplasmic (Homo sapiens) (UniProt Q99487)
Test: inhibition of cytoplasmic PAF acetylhydrolase 2 – biochemical, fluorescence polarization, human, confirmation (AID 493030);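 further: inhibitor blocks binding of rhodamine activity probe so polarization falls; 0% = enzyme with DMSO and 100% = wells lacking PAFAH2 protein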
Settings: recombinant PAFAH2, FP-rhodamine activity probe, at 3.39 µM, hits give high values
The campaign covered roughly 2,300 compounds. About 1,500 (65%) were called active. The set was probably picked from earlier hits. Not all results are given here.
Threshold check on inhibition: at or above 40% gives YES, strictly below gives NO.

1) CS(=O)(=O)c1ccc(Cl)c(NC(=O)COC(=O)c2cccc(S(=O)(=O)N3CCCC3)c2)c1	NO
2) O=C(ON=C1CCN(S(=O)(=O)c2ccccc2)CC1)c1ccc(Cl)cc1	YES
3) Cc1ccc2c(=O)oc(N(C)C)nc2c1	NO
4) COc1ccc(S(=O)(=O)N2CCOCC2)cc1NC(=O)CC1CC2CCC1C2 (configuration not stated)	YES
5) O=C(COC(=O)c1ccccc1SCC(=O)N1CCCC1)Nc1ccccc1OC(F)F	NO
6) CC(C)(C)c1ccc(/C=C2\Oc3c(ccc(O)c3CN3CCN(CCO)CC3)C2=O)cc1	YES
7) Cc1cc(C(=O)OCC(=O)Nc2ccc(F)c(F)c2)c(C)o1	YES
8) COc1ccc(C(=O)OCC(=O)NCC2CCCCC2)cc1S(=O)(=O)N1CCCc2ccccc21	YES
9) O=C(Nc1nnc(SCc2c(Cl)cccc2Cl)s1)c1cccc([N+](=O)[O-])c1	YES
10) NC(=O)Nc1ccc(C(=O)OCC(=O)NC2CCCc3ccccc32)cc1 (configuration not stated)	YES
11) COc1ccc(S(=O)(=O)N2CCOCC2)cc1NC(=O)Cc1c(F)cccc1Cl	NO
12) Cc1cccc(C(=O)OCC(=O)Nc2ccc(F)cc2)c1	YES
13) CC1CC1C(=O)OCC(=O)Nc1cccc(F)c1 (configuration not stated)	YES
14) Oc1c(Cl)cc(Cl)c(Cl)c1Cc1c(O)c(Cl)cc(Cl)c1Cl	NO
15) Cc1cc(C(=O)NNC(=O)c2ccccc2O)c(C)o1	NO
16) O=C(COC(=O)c1cccc(Cl)c1)NC1CCCCCCC1	YES
17) O=C(COC(=O)C1CC2C=CC1C2)Nc1ccccc1 (configuration not stated)	YES
18) O=C(COC(=O)c1ccccc1)Nc1cccc(S(=O)(=O)N2CCOCC2)c1	NO
19) CC1=NN(c2ccc(Cl)c(C(=O)O)c2)C(=O)/C1=C/c1ccc(-c2ccccc2[N+](=O)[O-])o1	NO
20) CCC(C)c1ccc(NC(=O)COC(=O)C2CCCC2)cc1 (configuration not stated)	NO
